Exercise: for every item that follows, state its recorded pKd.
# assayed system: T1, cynomolgus monkey Protein S (cynomolgus monkey)
# T1 construct: also called cyno Protein S
# assay text: BLI Octet; antibody on anti-human Fc probe; Protein S 7.81-500 nM; 4 mM CaCl2
The read-out pKd is expressed as -log10 of concentration in moles per litre.

Record summary for Antibody 4 (antibody, V domains shown, Same variable regions as Antibody 16) VH: QVQLVESGGGVVQPGRSLRLSCAASGFTFSTYGFHWVRQPPGKGLEWVAVIYYDGINKYYADSVKGRFTISRDNSKNTLFLQMNSLRAEDTAVYYCAESDLDYWGQGTLVTVSS VL: EIVLTQSPATLSLSPGERATLSCRASQSVSIYLAWYQQKPGQAPRLLIYDASNRATGIPARFSGSGSGTDFTLTISSLEPEDFAVYYCQQRSNWPLTFGPGTKVDIK : reported pKd = 7.82

Record summary for Antibody 41 (antibody, V domains shown, Same variable regions as Antibody 42) VH: QVQLVQSGSEVKKPGASVKVSCKASGYTFTNYYIHWVRQAPGQGLEWMGIITPSGGTTSYAQKFQGRVTMTRDTSTNTVYMGLSSLRSEDTAMYYCARAGVQLDRRGWFDPWGQGTLVTVSS VL: SYELTQPPSVSVSPGQTASITCSGDKLGDKYVFWYQQKPGQSPVLVIYQDSKRPSGIPERFSGSNSGNTATLTISGTQTMDEADYYCQAWDSSTVGFGGGTKLAVL : reported pKd = 7.71

Record summary for Antibody 27 (antibody, V domains shown, Same variable regions as Antibody 33) VH: QVQLQQSGPGLVKPSQTLSLTCAISGDSVSNNNAAWNWIRQSPSRGLEWLGGTYYRSKWYNDYAVSVKSRIIINPVTSKNQFSLQLNSVTPEDTAVYYCARGSSWYRFFDYWGQGTLVTVSS VL: EIVLTQSPGTLSLSPGERATLSCRASQSVGSSYLAWYQQKPGQAPRLLISGASGRATGIPDRFSGSGSGTDFTLTISRLEPEDFTVYYCQQYGSSPYTFGQGTKLEIK : reported pKd = 7.46

Record summary for Antibody 28 (antibody, V domains shown) VH: QVQLQQSGTELVRPGTSVKMSCKAAGYTFTNHWIGWVKQRPGHGLEWIGDIYPGGGYTNYNEKFKGKASLTADTSSTTAYMQLSSLTSEDSAIYYCSRFGDQNWAWFAYWGQGTLVTVSA VL: DIQMNQSPSSLSASLGDTITITCRASQNIHMWLSWYQQKPGNIPKLLIFKTSNLHTGVPSRFSGSGSGTDFTLTISSLQPEDIATYYCLQGQSYPFTFGGGTKLEIK : reported pKd = 8.01

Record summary for Antibody 39 (antibody, V domains shown, Same variable regions as Antibody 40) VH: EVQLVESGGGLVQPGGSLRLSCAASGFTFSSYSMNWVRQAPGKGLEWVAYISSSTRTIFYADSVKGRFTISRDNAKNSLYLQMNSLRDEDTAFYYCARERSAFDYWGQGTLVTVSS VL: SYVLTQPPSVSVAPGQTARITCGGDNIGGKSVHWYQQKPGQAPVMVVYDDSDRPSGIPERFAGSNSGNTATLAISRVEAGDEADYYCQVWEITSDHPAFGGGTRLTVL : reported pKd = 9.38

Record summary for Antibody 30 (antibody, V domains shown, Same variable regions as Antibody 36) VH: EVQLVESGGGLVKPGGSLRLSCAASGFTFSSYNMNWVRQAPGRGLDWVSSISSSSSYIYYADSVKGRFTISRDNAKNSLYLQMNTLRAEDTAVYYCARDEEWELLTGFDYWGQGTLVTVSS VL: DIQMTQSPSSLSASVGDRVTITCRASQGINNYLAWFQQKPGKAPKSLIYAASNLQSGVPLKFSGSGSGTDFTLTISSLQPEDFATYYCQQYNSYPITFGQGTRLEIK : reported pKd = 7.68

Record summary for Antibody 12 (antibody, V domains shown, Same variable regions as Antibody 24) VH: QVQLQESGPGLVKPSETLSLTCGVSGGSISSTNWWSWVRQPPGKGLEWIGEIYQTGSTDYDPSLKSRVTISIDKSKNQFSLKLYSVTAADTAVYYCARRFGELDYWGQGTLVTVSS VL: EIVMTQSPATLSVSPGERATLSCRASQSVTSNLAWYQQKPGQAPRLLIYDASTRATGIPARFSGSGSGTEFTLTISSLQSEDFAIYYCQQYNNWPTFGQGTRLEIK : reported pKd = 7.95
